Values were extracted from patent US11331299B2.

# targetOrSystem: JMJD1A (h) (Homo sapiens)
# Sequence (Q9Y4C1 1-1321): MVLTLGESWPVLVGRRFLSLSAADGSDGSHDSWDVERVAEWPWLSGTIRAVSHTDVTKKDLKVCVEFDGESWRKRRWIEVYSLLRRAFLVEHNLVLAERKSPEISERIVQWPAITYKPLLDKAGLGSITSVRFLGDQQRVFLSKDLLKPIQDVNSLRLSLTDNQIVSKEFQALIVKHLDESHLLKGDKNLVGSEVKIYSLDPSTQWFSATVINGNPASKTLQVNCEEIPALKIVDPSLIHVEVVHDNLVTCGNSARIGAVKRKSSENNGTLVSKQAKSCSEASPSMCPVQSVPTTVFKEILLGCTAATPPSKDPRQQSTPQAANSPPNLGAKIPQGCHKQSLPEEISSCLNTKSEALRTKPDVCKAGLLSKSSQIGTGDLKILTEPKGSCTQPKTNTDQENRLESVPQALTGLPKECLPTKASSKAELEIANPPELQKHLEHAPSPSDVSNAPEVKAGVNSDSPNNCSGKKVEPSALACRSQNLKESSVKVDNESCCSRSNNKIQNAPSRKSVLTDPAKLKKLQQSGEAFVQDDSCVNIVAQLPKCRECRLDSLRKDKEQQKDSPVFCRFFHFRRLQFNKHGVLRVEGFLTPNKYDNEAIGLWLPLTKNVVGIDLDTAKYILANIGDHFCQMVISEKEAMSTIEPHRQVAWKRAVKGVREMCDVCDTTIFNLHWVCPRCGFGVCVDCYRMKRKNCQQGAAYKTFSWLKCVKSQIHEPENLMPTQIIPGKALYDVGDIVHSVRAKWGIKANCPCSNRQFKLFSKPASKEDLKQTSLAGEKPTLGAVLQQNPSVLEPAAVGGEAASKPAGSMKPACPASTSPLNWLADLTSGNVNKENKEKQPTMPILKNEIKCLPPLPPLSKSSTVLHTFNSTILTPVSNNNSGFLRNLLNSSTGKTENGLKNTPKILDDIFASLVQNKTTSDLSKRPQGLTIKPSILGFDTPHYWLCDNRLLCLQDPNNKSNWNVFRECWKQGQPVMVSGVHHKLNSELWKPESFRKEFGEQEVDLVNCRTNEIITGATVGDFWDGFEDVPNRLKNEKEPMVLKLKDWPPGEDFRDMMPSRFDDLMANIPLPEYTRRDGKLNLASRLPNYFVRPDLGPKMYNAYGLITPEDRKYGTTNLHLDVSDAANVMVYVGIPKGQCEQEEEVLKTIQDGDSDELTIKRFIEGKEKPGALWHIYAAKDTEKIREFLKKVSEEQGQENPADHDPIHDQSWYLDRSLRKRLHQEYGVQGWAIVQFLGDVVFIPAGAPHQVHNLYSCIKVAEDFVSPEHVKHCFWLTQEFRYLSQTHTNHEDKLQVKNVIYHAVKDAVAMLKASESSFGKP
assayReadout: IC50 (µM)
The figure you give is taken to be in µM; do not add the unit.

INPUT: Fill in: IC50 of CC(C)=CCC[C@H](CO)[C@@H]1CC[C@@H](C)c2c1cc(C)c(O)c2O [Compound 1, 7,8,18-trihydroxyserrulat-14-ene] is ___
OUTPUT: 4.5

###

# Test system: 280 human cancer cell lines
# protocolDescription: OncoPanel cell proliferation assay (10-day)
# Type: cell-based
# assayContext: Homo sapiens, CAL-62, CAL-62, Endocrine - Thyroid; read-out: Cell Count EC50
Item-by-item account of pEC50
API: returns pEC50 as number; meaning -log10 of concentration in mol/L.

CC(C)=CCC[C@@H]1C(O)Oc2c(C)cc(O)c3c2[C@H]1CC[C@H]3C (stereo partly drawn) :: 5.25
CC(C)=CCC[C@H](C)[C@@H]1CC[C@@H](C)c2c1cc(C)c(O)c2O [Compound 4, 7,8-dihydroxyserrulat-14-ene] :: 5.27

INPUT: Give recorded pEC50 with 280 human cancer cell lines for the following molecule: CC(C)=CCC[C@H](CO)[C@@H]1CC[C@@H](C)c2c1cc(C)c(O)c2O [Compound 1, 7,8,18-trihydroxyserrulat-14-ene]
OUTPUT: 5.77
